Here the recorded koff is given for each entry.
# targetOrSystem: T1, human transferrin receptor (recombinant, for surface plasmon resonance) (human, UniProt P02786 89-760)
# T1 construct: also called huTfR; human transferrin receptor-biotinylated
# T1 sequence (P02786 89-760 limits assumed): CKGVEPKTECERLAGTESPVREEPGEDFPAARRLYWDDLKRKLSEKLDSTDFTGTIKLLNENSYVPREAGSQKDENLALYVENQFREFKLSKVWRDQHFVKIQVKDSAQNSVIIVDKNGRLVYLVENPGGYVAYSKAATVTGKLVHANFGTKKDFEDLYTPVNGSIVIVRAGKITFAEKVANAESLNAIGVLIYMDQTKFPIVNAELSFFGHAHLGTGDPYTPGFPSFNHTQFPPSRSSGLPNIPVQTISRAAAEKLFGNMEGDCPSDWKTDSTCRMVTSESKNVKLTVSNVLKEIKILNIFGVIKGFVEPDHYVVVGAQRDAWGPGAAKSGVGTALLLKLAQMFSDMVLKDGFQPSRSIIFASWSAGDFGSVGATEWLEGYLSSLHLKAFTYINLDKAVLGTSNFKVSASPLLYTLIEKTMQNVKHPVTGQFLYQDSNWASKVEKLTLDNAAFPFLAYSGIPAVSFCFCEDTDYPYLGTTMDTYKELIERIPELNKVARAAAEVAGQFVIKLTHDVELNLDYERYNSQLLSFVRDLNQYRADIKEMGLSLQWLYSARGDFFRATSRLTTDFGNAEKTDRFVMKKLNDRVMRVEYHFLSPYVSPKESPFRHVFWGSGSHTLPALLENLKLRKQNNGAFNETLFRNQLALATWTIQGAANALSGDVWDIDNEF
# experimentalDetails: SPR

binder	koff, s⁻¹
4/94 murine VH / murine VL (antibody, V domains shown, 0 (mu) read as the murine parental domains of clone 4/94; also called 0 (mu) x 0 (mu)) VH: EVQLQQSGAVLVKPGASVKLSCPASGFNIKDTYIHWVIQRPEQGLEWIGRIDPANGDTKCDPKFQVKATITADTSSNTAYLQLSSLTSEDTAVYFCVRDYLYPYYFDFWGQGTTLTVSS VL: KIVMTQSPKSMSMSVGERVTLNCRASESVDTYVSWYQQKPEQSPELLIYGASNRYTGVPDRFTGSGSATDFTLTISSVQAEDLADYYCGQTYNYPLTFGAGTKLELKR	0.000136
4/94 SEQ ID NO 196 / SEQ ID NO 201 (antibody, V domains shown) VH: QVQLVQSGAEVKKPGASVKVSCKASGFNIKDTYIHWVIQAPGQGLEWMGRIDPANGDTKSDPKFQGRVTITADTSTSTVYMELSSLRSEDTAVYYCVRDYLYPYYFDFWGQGTTVTVSS VL: KIQMTQSPSSLSASVGDRVTITCRASESVDTYVSWYQQKPGKAPKLLIYGASNRYTGVPSRFSGSGSGTDFTLTISSLQPEDFADYYCGQTYNYPLTFGQGTKLEI	0.000386
4/94 SEQ ID NO 194 / murine VL (antibody, V domains shown) VH: QVQLVQSGAEVKKPGASVKVSCKASGFNIKDTYIHWVIQAPGQGLEWMGRIDPANGDTKSDPKFQVRVTITADTSTSTVYMELSSLRSEDTAVYYCVRDYLYPYYFDFWGQGTTVTVSS VL: KIVMTQSPKSMSMSVGERVTLNCRASESVDTYVSWYQQKPEQSPELLIYGASNRYTGVPDRFTGSGSATDFTLTISSVQAEDLADYYCGQTYNYPLTFGAGTKLELKR	0.00037
